Molecular target: T1, GST-TIR1-ASK1 complex (Arabidopsis thaliana, UniProt Q570C0 1-594; Q39255 1-160)
T1 chain 1: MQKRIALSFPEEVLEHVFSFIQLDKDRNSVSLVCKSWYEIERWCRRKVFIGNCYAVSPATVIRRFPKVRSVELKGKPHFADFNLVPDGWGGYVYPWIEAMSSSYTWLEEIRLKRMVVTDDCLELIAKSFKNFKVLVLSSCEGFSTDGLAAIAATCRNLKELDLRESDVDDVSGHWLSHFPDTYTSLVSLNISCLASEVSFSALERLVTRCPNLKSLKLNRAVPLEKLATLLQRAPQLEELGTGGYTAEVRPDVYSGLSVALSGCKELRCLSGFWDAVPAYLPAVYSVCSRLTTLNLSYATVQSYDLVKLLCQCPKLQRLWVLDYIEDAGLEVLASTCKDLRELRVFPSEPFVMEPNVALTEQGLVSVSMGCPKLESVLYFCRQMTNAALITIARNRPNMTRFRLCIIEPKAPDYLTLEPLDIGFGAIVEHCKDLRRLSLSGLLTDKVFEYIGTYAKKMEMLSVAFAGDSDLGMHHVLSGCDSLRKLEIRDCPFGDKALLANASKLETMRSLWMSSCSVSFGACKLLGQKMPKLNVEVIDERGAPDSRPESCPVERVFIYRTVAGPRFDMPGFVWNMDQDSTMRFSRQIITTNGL
T1 chain 2: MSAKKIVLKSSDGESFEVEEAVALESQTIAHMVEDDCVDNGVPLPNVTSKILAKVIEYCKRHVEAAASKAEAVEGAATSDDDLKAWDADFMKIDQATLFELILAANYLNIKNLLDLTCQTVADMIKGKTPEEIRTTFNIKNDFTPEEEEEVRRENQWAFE
Assay: 200 uM auxin; AlphaScreen competition with biotin-Aux/IAA7
measured_metric: pIC50
Give bare numbers, as −log10 of the molar value.

Which pIC50 is reported for this binder? QVVGWPPVRNYRK (synthetic peptide, unlabelled; limits not given, taken from the IAA7 degron peptide of the TIR1-ASK1 crystal structures (13-mer, PDB 2P1Q)) [IAA7 degron peptide, non-labeled] 7.74
